Quick reference: pKi of the listed items.
target: D(2) dopamine receptor (Rattus norvegicus); assay: biochemical
Sequence (P61169 whole entry): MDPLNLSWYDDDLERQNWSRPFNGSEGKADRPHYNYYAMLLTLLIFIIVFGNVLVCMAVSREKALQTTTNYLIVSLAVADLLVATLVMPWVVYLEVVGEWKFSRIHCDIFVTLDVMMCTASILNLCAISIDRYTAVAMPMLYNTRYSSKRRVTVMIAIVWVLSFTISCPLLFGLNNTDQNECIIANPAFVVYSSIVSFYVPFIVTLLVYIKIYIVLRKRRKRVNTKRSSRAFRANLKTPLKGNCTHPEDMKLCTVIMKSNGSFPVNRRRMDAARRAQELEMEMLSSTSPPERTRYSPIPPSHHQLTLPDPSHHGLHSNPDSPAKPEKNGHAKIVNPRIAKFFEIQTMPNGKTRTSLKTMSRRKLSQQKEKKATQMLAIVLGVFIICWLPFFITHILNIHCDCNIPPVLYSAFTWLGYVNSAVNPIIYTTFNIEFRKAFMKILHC
Description: Displacement of [3H]-spiroperidol from rat D2L receptor expressed in HEK293 cells assessed as inhibition constant by Cheng-Prusoff equation analysis
// pKi here means minus log10 of the molar concentration (mol/L)

>>> value("CCCN(CCc1ccc(CCN(CCC)[C@H]2CCc3c(O)cccc3C2)cc1)[C@H]1CCc2c(O)cccc2C1")
8.41
>>> value("CCCN(CCN1CCN(CCN(CCC)[C@H]2CCc3c(O)cccc3C2)CC1)[C@H]1CCc2c(O)cccc2C1")
7.92

API: the following record is the query input.
Inquiry: Data request, read-out pKi, for "CCCN(CCc1ccc(CCN(CCC)[C@H]2CCc3nc(N)sc3C2)cc1)[C@H]1CCc2c(O)cccc2C1"
Reply text: 8.31

Recorded values, source ChEMBL document CHEMBL5236649.
